method summary: in vitro
experimental context: Chinese hamster, CHO cells with S9, % Cytotoxicity Cell Numbers, first section (CHO + S9, HCA), 3.1E−05 M
quantity kind: cytotoxicity at 31 µM (%)
# output: bare number, implied unit %

The measured cytotoxicity at 31 µM associated with `O=C(/C=C/c1ccc2c(c1)CCN2S(=O)(=O)c1ccccc1)NO` reads 19.1

* * *

method summary: in vitro
experimental context: Chinese hamster, CHO cells with S9, % Cytotoxicity Cell Numbers, first section (CHO + S9, HCA), 2.5E−04 M
quantity kind: cytotoxicity at 0.00025 M (%)
Report the figure in % without appending any unit label.

Just so you know, measured cytotoxicity at 0.00025 M for O=C(/C=C/c1ccc2c(c1)CCN2S(=O)(=O)c1ccccc1)NO [TMU-C-0012] came out at 51.8
